src = ChEMBL document CHEMBL4619788

- target_under_test: Protein cereblon/Focal adhesion kinase 1 (Homo sapiens) (UniProt Q05397+Q96SW2)
- Sequence (Q05397 2-1052 limits assumed): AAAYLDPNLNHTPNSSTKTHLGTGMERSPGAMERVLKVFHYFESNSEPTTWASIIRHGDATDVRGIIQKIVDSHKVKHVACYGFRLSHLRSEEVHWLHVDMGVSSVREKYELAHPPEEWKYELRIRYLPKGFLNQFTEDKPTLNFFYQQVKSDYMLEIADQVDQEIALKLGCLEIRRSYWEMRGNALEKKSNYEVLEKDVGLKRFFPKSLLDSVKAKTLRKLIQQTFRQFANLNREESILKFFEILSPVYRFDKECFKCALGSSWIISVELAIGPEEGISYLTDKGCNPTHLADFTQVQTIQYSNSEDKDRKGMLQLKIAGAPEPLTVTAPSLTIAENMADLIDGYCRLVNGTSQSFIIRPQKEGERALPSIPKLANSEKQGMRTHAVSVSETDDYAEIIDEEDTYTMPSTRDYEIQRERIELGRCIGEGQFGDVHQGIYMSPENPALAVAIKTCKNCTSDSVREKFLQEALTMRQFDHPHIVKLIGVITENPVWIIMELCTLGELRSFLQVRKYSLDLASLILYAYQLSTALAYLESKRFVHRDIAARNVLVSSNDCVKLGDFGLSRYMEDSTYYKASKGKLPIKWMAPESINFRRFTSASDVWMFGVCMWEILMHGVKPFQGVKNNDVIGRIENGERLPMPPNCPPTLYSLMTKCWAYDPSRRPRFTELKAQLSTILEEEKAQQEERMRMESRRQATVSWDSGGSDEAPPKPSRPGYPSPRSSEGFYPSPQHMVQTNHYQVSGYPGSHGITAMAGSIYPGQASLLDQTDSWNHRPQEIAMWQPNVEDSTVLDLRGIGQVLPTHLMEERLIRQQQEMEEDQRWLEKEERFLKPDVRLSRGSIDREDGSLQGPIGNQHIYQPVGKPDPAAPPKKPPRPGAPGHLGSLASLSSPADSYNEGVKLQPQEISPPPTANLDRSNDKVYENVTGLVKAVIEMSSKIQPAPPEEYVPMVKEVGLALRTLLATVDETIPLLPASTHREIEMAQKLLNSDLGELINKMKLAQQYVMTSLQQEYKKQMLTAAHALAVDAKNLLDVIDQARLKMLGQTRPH
- Sequence (Q96SW2 whole entry partner): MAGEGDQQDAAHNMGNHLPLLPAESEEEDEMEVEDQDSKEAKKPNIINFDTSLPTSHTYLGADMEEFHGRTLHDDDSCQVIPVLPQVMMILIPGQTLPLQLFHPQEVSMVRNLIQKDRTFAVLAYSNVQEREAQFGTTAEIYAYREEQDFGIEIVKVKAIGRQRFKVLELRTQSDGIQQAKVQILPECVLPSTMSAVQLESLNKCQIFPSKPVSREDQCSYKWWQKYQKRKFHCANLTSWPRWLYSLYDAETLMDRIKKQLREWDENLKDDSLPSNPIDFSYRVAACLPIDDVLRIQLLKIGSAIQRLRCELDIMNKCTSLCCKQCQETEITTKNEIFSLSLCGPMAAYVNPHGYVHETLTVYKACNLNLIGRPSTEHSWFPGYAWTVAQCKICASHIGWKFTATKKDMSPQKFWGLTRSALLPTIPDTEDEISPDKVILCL
- method_notes: Protac activity at CRBN/FAK in human PA-TU-8988T cells assessed as induction of FAK degradation at 10 nM incubated for 4 hrs by immunoblot assay relative to control
- Type: cell-based
measure_name: Activity

CNC(=O)c1ccccc1Nc1cc(Nc2cc(C)c(C3CCN(CCCCCCNC(=O)COc4cccc5c4C(=O)N(C4CCC(=O)NC4=O)C5=O)CC3)cc2OC(C)C)ncc1C(F)(F)F (stereo not drawn)
85 to 100%
CNC(=O)c1ccccc1Nc1cc(Nc2ccc(N3CCN(CCCCCCCCNC(=O)CNc4cccc5c4C(=O)N(C4CCC(=O)NC4=O)C5=O)CC3)cc2OC)ncc1C(F)(F)F (stereo not drawn)
85 to 100%

Test item CNC(=O)c1ccccc1Nc1cc(Nc2ccc(N3CCN(CCOCCOCCNC(=O)CNc4cccc5c4C(=O)N(C4CCC(=O)NC4=O)C5=O)CC3)cc2OC)ncc1C(F)(F)F (stereo not drawn) ; Protein cereblon/Focal adhesion kinase 1 (Homo sapiens) (UniProt Q05397+Q96SW2); reported Activity was 70 to 84%

====

- target_under_test: Protein cereblon/Focal adhesion kinase 1 (Homo sapiens) (UniProt Q05397+Q96SW2)
- method_notes: Protac activity at CRBN/FAK in human PA-TU-8988T cells assessed as induction of FAK degradation at 10 nM incubated for 4 hrs by immunoblot assay relative to control
- Assay type: cell-based
measure_name: Activity

The examples below pair each entry with its known result.
CNC(=O)c1ccccc1Nc1cc(Nc2ccc(N3CCN(CCCCCCNC(=O)COc4cccc5c4C(=O)N(C4CCC(=O)NC4=O)C5=O)CC3)cc2OC)ncc1C(F)(F)F (stereo not drawn)
85 to 100%
CS(=O)(=O)c1cccc(CNc2nc(Nc3ccc(C(=O)NCCCCCCCCNC(=O)COc4cccc5c4C(=O)N(C4CCC(=O)NC4=O)C5=O)cc3)ncc2C(F)(F)F)c1 (stereo not drawn)
25 to 49%

Please turn your attention to the following entry.
In plain terms, CNC(=O)c1ccccc1Nc1cc(Nc2ccc(N3CCN(CCCCCCCCNc4cccc5c4C(=O)N(C4CCC(=O)NC4=O)C5=O)CC3)cc2OC)ncc1C(F)(F)F (stereo not drawn) has a documented Activity of 85 to 100%
